System: MOLT-4F
assay-explanation: Inhibitory activity against proliferation of human T-lymphoblast Molt/4F tumor cell line
Format: functional, cell-based
observable: IC50

{"given-smiles": "CCCCNC(=O)OC/C=C(\\C)C1=CC(=O)C(C)(C)O1", "observable": "IC50", "test-result": "5.3 µg/mL"}
{"given-smiles": "C=CCNC(=O)OC/C=C(\\C)C1=CC(=O)C(C)(C)O1", "observable": "IC50", "test-result": "7.7 µg/mL"}
{"given-smiles": "C/C(=C\\COC(=O)NC(C)(C)C)C1=CC(=O)C(C)(C)O1", "observable": "IC50", "test-result": "6.1 µg/mL"}
{"given-smiles": "C/C(=C\\COC(=O)Nc1ccccc1)C1=CC(=O)C(C)(C)O1", "observable": "IC50", "test-result": "> 200 µg/mL"}

Can you share its IC50? I mean this compound: C/C(=C\COC(=O)NC1CCCCC1)C1=CC(=O)C(C)(C)O1
3.4 µg/mL

Same again, this time with C/C(=C\COC(=O)NC(C)C)C1=CC(=O)C(C)(C)O1
6.6 µg/mL
